Just for reference, patent US11521704B2 is where these values come from.

System: SF-2 wild-type HIV-1 protease
assay details: Cell-based replicon assay
measurement setup: Human immunodeficiency virus 1, cell-based replicon assays
measurement name: pEC50
Answers are plain numbers, as −log10 of the molar value.

Entry CC(C)CN(C[C@@H](O)[C@H](Cc1ccccc1)NC(=O)O[C@H]1CO[C@H]2OCC[C@H]21)S(=O)(=O)c1ccc(N)cc1 : reported pEC50 = ? 8.40

----------
Test system: clinically-derived HIV-1 protease variant SLK19
assay details: Cell-based assay (Swanstrom laboratory)
measurement setup: Human immunodeficiency virus 1
measurement name: EC50 (nM)
Answers are plain numbers, in nM.

Entry CC(C)CN(C[C@@H](O)[C@H](Cc1ccccc1)NC(=O)O[C@H]1CO[C@H]2OCC[C@H]21)S(=O)(=O)c1ccc(N)cc1 : reported EC50 = ? 32.5

----------
System: clinically-derived HIV-1 protease variant KY26
assay details: Cell-based assay (Swanstrom laboratory)
measurement setup: Human immunodeficiency virus 1
measurement name: EC50 (µM)
Answers are plain numbers, in µM.

Entry CC(C)CN(C[C@@H](O)[C@H](Cc1ccccc1)NC(=O)O[C@H]1CO[C@H]2OCC[C@H]21)S(=O)(=O)c1ccc(N)cc1 : reported EC50 = ? 1.16
